- STUDY TARGET: UniProt P19971
- Sequence (P19971 whole entry): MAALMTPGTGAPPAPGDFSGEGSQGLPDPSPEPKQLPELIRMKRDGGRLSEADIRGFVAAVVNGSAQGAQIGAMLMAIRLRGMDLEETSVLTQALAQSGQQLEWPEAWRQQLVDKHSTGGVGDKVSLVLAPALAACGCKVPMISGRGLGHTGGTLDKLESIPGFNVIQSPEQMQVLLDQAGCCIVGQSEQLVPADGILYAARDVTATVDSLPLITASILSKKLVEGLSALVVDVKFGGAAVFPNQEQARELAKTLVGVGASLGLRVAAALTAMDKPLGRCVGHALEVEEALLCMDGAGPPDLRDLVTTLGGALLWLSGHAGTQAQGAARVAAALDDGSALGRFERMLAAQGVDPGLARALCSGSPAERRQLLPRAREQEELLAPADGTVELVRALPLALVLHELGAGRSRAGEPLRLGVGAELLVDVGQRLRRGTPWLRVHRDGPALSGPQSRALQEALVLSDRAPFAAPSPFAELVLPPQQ
IC50 strictly less than 30 µM = t. Otherwise f.

• CO/N=C(\c1ccccc1)n1c(C)cc(=O)[nH]c1=O = f
• CCc1ccc(/C(=N/O)n2c(C)cc(=O)[nH]c2=O)cc1 = t
• COc1cccc(/C(=N\O)n2cc(I)c(=O)[nH]c2=O)c1 = f
• Cc1cc(=O)[nH]c(=O)n1/C(=N\O)c1ccccc1 = t
• COc1ccc(/C(=N\O)n2cc(I)c(=O)[nH]c2=O)cc1 = t
• COc1cccc(/C(=N/O)n2c(C)cc(=O)[nH]c2=O)c1 = t
• Cc1cc(=O)[nH]c(=O)n1/C(=N\O)c1ccc(F)cc1 = f
• Cc1cc(=O)[nH]c(=O)n1C(=O)c1ccccc1 = f
• O=c1[nH]c(=O)n(/C(=N/O)c2ccccc2F)cc1I = f
• Cc1cc(=O)[nH]c(=O)n1/C(=N\O)c1ccc(Br)cc1 = t
• Cc1cc(=O)[nH]c(=O)n1/C(=N\O)c1cccs1 = f
